MEASURED_ON: HLA DRB1 *0701 (Homo sapiens, UniProt P01903+P01911, A100R/A102G/A103Q/D57E/D86V/E43K/F76Y/K127E/L162R/M171V/P40G/Q125H/Q99D/R33Q/R42Y/R54Q/S133A/S66F/T210M/V115G/Y107V/Y59L/Y89S)
TEST_PROTOCOL: IC50nM to purified HLA | DRB1 *0701
Where no end group is shown, it is not given here.
Each entry below lists one item and its recorded IC50 value.
Use nM as the unit, but write only the number.

Answered examples (3):
AAAHFVAAYTLKADA [SEQ ID NO: 32]
48
AAAEFVAAWTLHAAA [SEQ ID NO: 46]
97
AAADFVAAYTLHAAA [SEQ ID NO: 42]
182

Prompt line: Query (sequence): AAADFVAAWTLHAAA [SEQ ID NO: 41] ; field requested: IC50
Response line: 152

The origin of these recorded values is patent US9789181B2.
